Molecular target: UniProtKB O15530
Sequence (O15530 1-556): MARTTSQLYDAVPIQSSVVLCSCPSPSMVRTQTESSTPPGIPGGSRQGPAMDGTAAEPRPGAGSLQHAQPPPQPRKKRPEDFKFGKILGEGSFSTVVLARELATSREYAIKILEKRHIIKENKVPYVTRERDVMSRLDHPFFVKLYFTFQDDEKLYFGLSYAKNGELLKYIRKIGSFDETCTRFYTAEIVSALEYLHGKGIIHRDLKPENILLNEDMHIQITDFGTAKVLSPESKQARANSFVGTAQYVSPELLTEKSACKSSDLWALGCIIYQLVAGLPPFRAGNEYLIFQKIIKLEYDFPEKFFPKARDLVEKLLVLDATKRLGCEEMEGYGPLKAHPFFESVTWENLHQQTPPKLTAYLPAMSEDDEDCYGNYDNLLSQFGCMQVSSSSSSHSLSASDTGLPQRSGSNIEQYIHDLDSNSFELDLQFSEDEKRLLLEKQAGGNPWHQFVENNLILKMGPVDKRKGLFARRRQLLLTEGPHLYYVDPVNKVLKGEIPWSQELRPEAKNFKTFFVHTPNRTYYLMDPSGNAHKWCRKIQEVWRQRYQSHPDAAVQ
Assay: Inhibition of various kinases (% inhibition)
Assay type: biochemical
Conditions: 1 μM
measurement-type: inhibition at 1 µM (%)
Field format: number, assumed %, no unit text.

QUERY: inhibition at 1 µM lookup needed for C#CCOc1ccc2c(C3=C(c4cn(C)c5ccc(Br)cc45)C(=O)NC3=O)coc2c1 [Compound 23] , thanks.
RESULT: 12

QUERY: inhibition at 1 µM lookup needed for C#Cc1ccc2c(c1)c(C1=C(c3coc4ccccc34)C(=O)NC1=O)cn2C [Compound 36] , thanks.
RESULT: 14

QUERY: inhibition at 1 µM lookup needed for O=C1NC(=O)C(c2cn(CCCO)c3ccc(Br)cc23)=C1c1coc2ccccc12 [Compound 21] , thanks.
RESULT: 80

QUERY: inhibition at 1 µM lookup needed for COc1cccc2c(C3=C(c4cn(C)c5cc(I)c(F)cc45)C(=O)NC3=O)coc12 [Compound 10] , thanks.
RESULT: -1

###

test system: MIAPaCa-2; test: Antiproliferation MTS assay, pancreatic cancer cells; format: cell-based; settings: Homo sapiens, MIA PaCa-2; 72 hrs, MTS
Field 'label' (enum: Met / Not met). Set to Met when IC50 is strictly under 20 µM; else Not met.

QUERY: Just wondering, is IC50 of `C#Cc1ccc2c(c1)c(C1=C(c3coc4ccccc34)C(=O)NC1=O)cn2C` below 20 µM?
RESULT: Not met

QUERY: Just wondering, is IC50 of `Cn1cc(C2=C(c3coc4ccc(F)cc34)C(=O)NC2=O)c2cc(C#CC3CC3)ccc21` below 20 µM?
RESULT: Not met

QUERY: Just wondering, is IC50 of COc1ccc(CNC(=O)Nc2ncc([N+](=O)[O-])s2)cc1 [AR-A014418, reference compound] below 20 µM?
RESULT: Not met

QUERY: Just wondering, is IC50 of `Cn1cc(C2=C(c3coc4cc(F)c(F)cc34)C(=O)NC2=O)c2ccc3ccccc3c21` below 20 µM?
RESULT: Met

QUERY: Just wondering, is IC50 of `Cn1cc(C2=C(c3coc4ccccc34)C(=O)NC2=O)c2cc(Br)ccc21` below 20 µM?
RESULT: Not met

QUERY: Just wondering, is IC50 of `Cn1cc(C2=C(c3coc4ccc(F)cc34)C(=O)NC2=O)c2ccc(OCc3ccccc3)cc21` below 20 µM?
RESULT: Not met

QUERY: Just wondering, is IC50 of `O=C1NC(=O)C(c2coc3ccccc23)=C1c1c[nH]c2ccc(OCc3ccccc3)cc12` below 20 µM?
RESULT: Not met

QUERY: Just wondering, is IC50 of `Cn1cc(C2=C(c3coc4ccccc34)C(=O)NC2=O)c2cc(F)c(Cl)cc21` below 20 µM?
RESULT: Met

QUERY: Just wondering, is IC50 of `N#Cc1ccc2c(c1)c(C1=C(c3coc4cc(F)c(F)cc34)C(=O)NC1=O)cn2CC1CC1` below 20 µM?
RESULT: Met

QUERY: Just wondering, is IC50 of Cn1cc(C2=C(c3ccc(Cl)cc3Cl)C(=O)NC2=O)c2ccccc21 [SB216763, reference compound] below 20 µM?
RESULT: Not met

QUERY: Just wondering, is IC50 of `COc1cccc2c(C3=C(c4cn(C)c5cc(C(F)(F)F)ccc45)C(=O)NC3=O)coc12` below 20 µM?
RESULT: Met

QUERY: Just wondering, is IC50 of `COc1cc2c(C3=C(c4coc5ccccc45)C(=O)NC3=O)cn(C)c2cc1Cl` below 20 µM?
RESULT: Not met

QUERY: Just wondering, is IC50 of `Cn1cc(C2=C(c3coc4ccccc34)C(=O)NC2=O)c2ccccc21` below 20 µM?
RESULT: Met

QUERY: Just wondering, is IC50 of `O=C1NC(=O)C(c2coc3ccccc23)=C1c1c[nH]c2ccc(F)cc12` below 20 µM?
RESULT: Not met

###

molecular target: CDK-1/cyclinB (Homo sapiens, UniProt P06493); assay: CDK panel (Reaction Biology); assay type: biochemical; conditions: tested at Reaction Biology, Inc.
Sequence (P06493 whole entry, species assumed): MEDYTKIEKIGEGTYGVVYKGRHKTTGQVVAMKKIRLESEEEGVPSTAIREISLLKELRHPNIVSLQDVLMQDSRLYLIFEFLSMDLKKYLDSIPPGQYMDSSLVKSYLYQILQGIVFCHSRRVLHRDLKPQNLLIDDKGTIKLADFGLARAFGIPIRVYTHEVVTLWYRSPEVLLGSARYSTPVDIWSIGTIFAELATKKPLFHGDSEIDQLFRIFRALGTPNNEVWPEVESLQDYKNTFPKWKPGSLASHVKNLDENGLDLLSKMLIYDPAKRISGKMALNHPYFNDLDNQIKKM
Sequence (P14635 whole entry partner, species assumed): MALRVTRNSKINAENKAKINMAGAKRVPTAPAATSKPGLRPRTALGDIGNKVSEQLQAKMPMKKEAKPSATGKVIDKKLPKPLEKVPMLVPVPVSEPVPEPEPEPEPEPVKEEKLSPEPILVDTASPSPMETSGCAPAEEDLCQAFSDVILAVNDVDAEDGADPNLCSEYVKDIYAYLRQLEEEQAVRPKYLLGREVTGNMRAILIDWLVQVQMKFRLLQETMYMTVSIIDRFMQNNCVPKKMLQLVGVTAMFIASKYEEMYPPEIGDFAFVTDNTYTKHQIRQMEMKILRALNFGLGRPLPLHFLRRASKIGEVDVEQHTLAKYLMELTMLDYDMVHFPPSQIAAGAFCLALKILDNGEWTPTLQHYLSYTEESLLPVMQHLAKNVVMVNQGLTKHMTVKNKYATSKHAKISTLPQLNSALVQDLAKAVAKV
measurement-type: IC50 (µM)
Field format: number, assumed µM, no unit text.

QUERY: IC50 lookup needed for `Cn1cc(C2=C(c3coc4cc(CO)ccc34)C(=O)NC2=O)c2cc(F)c(Cl)cc21` , thanks.
RESULT: 13.4

QUERY: IC50 lookup needed for `Cn1cc(C2=C(c3coc4cc(CO)ccc34)C(=O)NC2=O)c2cc(Br)ccc21` , thanks.
RESULT: 0.93

QUERY: IC50 lookup needed for `COCc1cccc2c(C3=C(c4coc5ccccc45)C(=O)NC3=O)cn(C)c12` , thanks.
RESULT: 8.53

QUERY: IC50 lookup needed for `COc1cccc2c(C3=C(c4cn(C)c5cc(Cl)c(F)cc45)C(=O)NC3=O)coc12` , thanks.
RESULT: 46.2

###

For each entry below, report its IC50 value.
molecular target: CDK-2/cyclinE (Homo sapiens, UniProt P24941); experiment: CDK-2/CyclinE inhibition (Reaction Biology); format: biochemical; details: tested at Reaction Biology, Inc.
Field format: number, assumed nM, no unit text.

QUERY: IC50 lookup needed for `Cn1cc(C2=C(c3coc4cc(CO)ccc34)C(=O)NC2=O)c2cc(Br)ccc21` , thanks.
RESULT: 337

QUERY: IC50 lookup needed for `Cn1cc(C2=C(c3coc4ccccc34)C(=O)NC2=O)c2cc(C3CC3)ccc21` , thanks.
RESULT: 32000

QUERY: IC50 lookup needed for `Cn1cc(C2=C(c3coc4ccccc34)C(=O)NC2=O)c2cccc(CO)c21` , thanks.
RESULT: 149

QUERY: IC50 lookup needed for `Cn1cc(C2=C(c3coc4cc(CO)ccc34)C(=O)NC2=O)c2cccc(CO)c21` , thanks.
RESULT: 27

QUERY: IC50 lookup needed for `Cn1cc(C2=C(c3coc4ccccc34)C(=O)NC2=O)c2cc(I)ccc21` , thanks.
RESULT: 1070

QUERY: IC50 lookup needed for `COCc1cccc2c(C3=C(c4coc5ccccc45)C(=O)NC3=O)cn(C)c12` , thanks.
RESULT: 3880

QUERY: IC50 lookup needed for `Cn1cc(C2=C(c3coc4ccccc34)C(=O)NC2=O)c2ccccc21` , thanks.
RESULT: 1410

###

target: CDK-2/cyclinE (Homo sapiens, UniProt P24941); experiment: CDK-2/CyclinE inhibition (Reaction Biology); assay type: biochemical; details: selectivity ratio
measurement-type: IC50 Ratio CDK-2/cyclinE GSK-3β

QUERY: IC50 Ratio CDK-2/cyclinE GSK-3β lookup needed for Cn1cc(C2=C(c3coc4ccc(F)cc34)C(=O)NC2=O)c2cc(Cl)ccc21 [Compound 27] , thanks.
RESULT: 2.6

QUERY: IC50 Ratio CDK-2/cyclinE GSK-3β lookup needed for Cn1cc(C2=C(c3coc4ccccc34)C(=O)NC2=O)c2ccccc21 [Compound 1] , thanks.
RESULT: 40

QUERY: IC50 Ratio CDK-2/cyclinE GSK-3β lookup needed for Cn1cc(C2=C(c3coc4cc(CO)ccc34)C(=O)NC2=O)c2cccc(CO)c21 [Compound 83] , thanks.
RESULT: 5

QUERY: IC50 Ratio CDK-2/cyclinE GSK-3β lookup needed for Cn1cc(C2=C(c3coc4ccccc34)C(=O)NC2=O)c2cccc(CO)c21 [Compound 82] , thanks.
RESULT: 27

###

target: recombinant human His6-GSK-3β (Homo sapiens); construct: His6; purchased EMD Biosciences; experiment: GSK-3β kinase assay, [γ32P] transfer to primed glycogen synthase peptide; type: biochemical; conditions: 10 μM ATP; 10 μM pGSM peptide; 30 minutes at 30° C.; read-out: IC50 (nM), GSK-3β inhibition;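 further: phosphate incorporation quantified by liquid scintillation counting of the filters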
Sequence (P49841 whole entry): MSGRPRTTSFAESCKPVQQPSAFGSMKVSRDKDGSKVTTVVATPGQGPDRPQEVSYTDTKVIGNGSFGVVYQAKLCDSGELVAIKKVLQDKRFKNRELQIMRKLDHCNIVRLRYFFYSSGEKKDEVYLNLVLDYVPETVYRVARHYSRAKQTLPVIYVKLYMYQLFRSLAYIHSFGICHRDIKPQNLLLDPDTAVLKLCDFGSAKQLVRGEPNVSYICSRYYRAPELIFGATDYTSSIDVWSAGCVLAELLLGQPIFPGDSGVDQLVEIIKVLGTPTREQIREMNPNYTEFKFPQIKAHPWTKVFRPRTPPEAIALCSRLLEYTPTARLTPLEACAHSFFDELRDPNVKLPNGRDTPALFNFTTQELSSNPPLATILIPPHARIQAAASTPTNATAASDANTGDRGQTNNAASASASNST
For each entry below, report its IC50 value.
Field format: number, assumed nM, no unit text.

QUERY: IC50 lookup needed for Cn1cc(C2=C(c3coc4ccccc34)C(=O)NC2=O)c2cc(F)c(Cl)cc21 [Compound 12] , thanks.
RESULT: 184

QUERY: IC50 lookup needed for COc1cccc2c(C3=C(c4cn(C)c5cc(Cl)c(F)cc45)C(=O)NC3=O)coc12 [Compound 15] , thanks.
RESULT: 260

QUERY: IC50 lookup needed for Cn1cc(C2=C(c3coc4cc(O)ccc34)C(=O)NC2=O)c2cc(F)ccc21 [Compound 9] , thanks.
RESULT: 3.5

QUERY: IC50 lookup needed for C#Cc1ccc2c(c1)c(C1=C(c3coc4ccccc34)C(=O)NC1=O)cn2C [Compound 36] , thanks.
RESULT: 9.6

QUERY: IC50 lookup needed for Cn1cc(C2=C(c3coc4cc(CO)ccc34)C(=O)NC2=O)c2cc(F)ccc21 [Compound 7] , thanks.
RESULT: 0.35

QUERY: IC50 lookup needed for Cn1cc(C2=C(c3coc4ccc(F)cc34)C(=O)NC2=O)c2ccc(OCc3ccccc3)cc21 [Compound 48] , thanks.
RESULT: 160

QUERY: IC50 lookup needed for Cn1cc(C2=C(c3coc4ccccc34)C(=O)NC2=O)c2cc(N3CCOCC3)ccc21 [Compound 39] , thanks.
RESULT: 1300

QUERY: IC50 lookup needed for O=C1NC(=O)C(c2coc3ccc(F)cc23)=C1c1c[nH]c2ccccc12 [Compound 2] , thanks.
RESULT: 670
